Experiment: yeast display, Sf9 membrane polyspecificity reagent, FACS + sequencing; frameworks hold sequencing errors
recordedMetric: polyreactivity (PSR sort gate)

These recorded examples may help you get a feel for the data.
QVQLVESGGRLVQAGCSLRLSCAASGFIFRLYAKGWYRQAPGKERELVAAISDDASTNYADSVKGRFTISRDNAKNTVYLQMNSLKPEDTAVYYCAAAVKRGYAQSFISDGYGYWGEGTQVTVSS
low polyreactivity
HVQLVESGGGLVQAGGSLRLICGASGFTFPNYAMGGYRHAPGKERELVAAITSGGGRTNYADSVKGRFTISRDNAKITVYLQMNSLKPADTAVYYCNAEKTYLGSRYRPYNYWGQGTQVTVSS
low polyreactivity
QVQLVESVGGLVQAGGSLRLSSASSGRIFWDYAIGCYRQAPGKERELVASISTDGSTYYADSVKGRFTISRDNAKNTVYLQMNSLKPEDTEVYFCAVRGLYRYIRWGYPSYYYWGLGTQVTVSS
low polyreactivity
QVQLVESGGGLVQAGGSHRLSCAASGTFKAYAMGWYRQAPGKERELVAVISNGGSTYYADSVKGRFTISRDNAKNTVYLQMNSLKPEDTAVYYCAARRGWYAYRFLSGSRLHYYWGQGTQVTVSS
high polyreactivity

--- query ---
Which value of polyreactivity (PSR sort gate) has been reported for QVQLVESGGGLVQAGGSLRLSCAASGFIFRYYAMGWYIQAPWKERELVAAIRRGRSTYYADSVKGRFTISRDNAKYTVYLQMNSLKPEDTAVDYCAVRLVSRFGISSYDYWGQGTQVTVSS in the records?
high polyreactivity
